Heads up, these molecules all have pKi values measured for D(2) dopamine receptor (Homo sapiens, UniProt P14416).
The meaning of pKi here: minus log10 of the concentration in molar units.

[
  {
    "MOLECULE": "O=C1COc2ccccc2N1CCCN1CCC(n2c(=O)[nH]c3ccccc32)CC1",
    "ASSAYED TARGET": "D(2) dopamine receptor (Homo sapiens, UniProt P14416)",
    "pKi": 7.80
  },
  {
    "MOLECULE": "O=C1CCc2ccccc2N1CCCN1CCC(c2ccc3[nH]ccc3c2)CC1",
    "ASSAYED TARGET": "D(2) dopamine receptor (Homo sapiens, UniProt P14416)",
    "pKi": 7.38
  },
  {
    "MOLECULE": "O=C1COc2ccccc2N1CCCN1CCC(n2c(=O)[nH]c3cnccc32)CC1",
    "ASSAYED TARGET": "D(2) dopamine receptor (Homo sapiens, UniProt P14416)",
    "pKi": 5.87
  },
  {
    "MOLECULE": "O=C1CCc2cc(F)ccc2N1CCCN1CCC(n2c(=O)[nH]c3ccccc32)CC1",
    "ASSAYED TARGET": "D(2) dopamine receptor (Homo sapiens, UniProt P14416)",
    "pKi": 8.19
  },
  {
    "MOLECULE": "O=c1[nH]c2ccccc2n1C1CCN(CCOc2ccccc2)CC1 [OXIPEROMIDE]",
    "ASSAYED TARGET": "D(2) dopamine receptor (Homo sapiens, UniProt P14416)",
    "pKi": 8.26
  },
  {
    "MOLECULE": "O=C1COc2ccccc2N1CCCN1CCC(n2c(=O)[nH]c3cccnc32)CC1",
    "ASSAYED TARGET": "D(2) dopamine receptor (Homo sapiens, UniProt P14416)",
    "pKi": 5.90
  }
]

// query pKi value for entry `O=C1CCc2ccccc2N1OCCN1CCC(n2c(=O)[nH]c3ccccc32)CC1`
7.26

Record: `O=C1CCc2cccnc2N1CCCN1CCC(n2c(=O)[nH]c3ccccc32)CC1`
6.22

Next: `O=C1COc2ccccc2N1CCCN1CCC(n2c(=O)[nH]c3cc(F)ccc32)CC1`
8.60

Another: `O=C1CCc2ncccc2N1CCCN1CCC(n2c(=O)[nH]c3ccccc32)CC1`
5.66

---

target: Voltage-gated inwardly rectifying potassium channel KCNH2 (Homo sapiens, UniProt Q12809); test: Inhibition of human ERG expressed in CHO cells after 30 mins by Rb+ flux assay
Sequence (Q12809 whole entry): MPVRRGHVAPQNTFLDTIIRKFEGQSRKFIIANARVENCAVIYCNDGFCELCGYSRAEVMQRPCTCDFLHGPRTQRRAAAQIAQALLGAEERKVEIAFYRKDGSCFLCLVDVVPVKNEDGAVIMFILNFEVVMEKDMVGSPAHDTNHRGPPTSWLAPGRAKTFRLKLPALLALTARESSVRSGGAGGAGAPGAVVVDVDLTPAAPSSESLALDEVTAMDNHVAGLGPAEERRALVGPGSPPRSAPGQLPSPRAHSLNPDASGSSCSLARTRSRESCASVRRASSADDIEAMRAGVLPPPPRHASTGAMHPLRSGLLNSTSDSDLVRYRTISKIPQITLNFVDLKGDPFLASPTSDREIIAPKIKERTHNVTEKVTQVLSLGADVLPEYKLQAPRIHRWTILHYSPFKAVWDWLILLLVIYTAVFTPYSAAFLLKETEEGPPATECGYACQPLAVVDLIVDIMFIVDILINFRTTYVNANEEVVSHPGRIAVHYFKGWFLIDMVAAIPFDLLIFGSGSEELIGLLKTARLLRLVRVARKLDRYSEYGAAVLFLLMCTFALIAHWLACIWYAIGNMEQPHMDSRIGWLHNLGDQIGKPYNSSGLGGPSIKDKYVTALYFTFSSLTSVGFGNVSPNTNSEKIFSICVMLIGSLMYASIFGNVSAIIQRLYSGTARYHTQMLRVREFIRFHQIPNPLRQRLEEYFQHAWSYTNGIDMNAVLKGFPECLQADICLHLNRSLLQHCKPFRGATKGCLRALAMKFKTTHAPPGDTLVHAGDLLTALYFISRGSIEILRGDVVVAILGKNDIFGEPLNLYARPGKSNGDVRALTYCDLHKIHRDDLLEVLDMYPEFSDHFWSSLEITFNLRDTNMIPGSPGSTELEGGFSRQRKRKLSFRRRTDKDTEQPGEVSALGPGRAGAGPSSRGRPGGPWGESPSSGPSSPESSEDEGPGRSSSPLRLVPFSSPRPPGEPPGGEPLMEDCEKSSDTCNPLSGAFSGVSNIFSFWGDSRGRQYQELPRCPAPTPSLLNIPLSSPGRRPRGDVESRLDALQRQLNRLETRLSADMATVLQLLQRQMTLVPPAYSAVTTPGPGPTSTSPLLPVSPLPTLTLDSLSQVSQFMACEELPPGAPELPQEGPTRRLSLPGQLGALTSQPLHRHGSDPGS
RECORDED ENDPOINT: pIC50
Please report pIC50 as the negative decimal logarithm of the molar concentration, giving only the number.

In the examples that follow, each entry is paired with its recorded pIC50.
[
  {
    "GIVEN SMILES": "O=C1CCc2ccccc2N1CCCN1CCC(c2ccc3[nH]ccc3c2)CC1",
    "pIC50": 5.36
  },
  {
    "GIVEN SMILES": "O=C1COc2ccccc2N1CCCN1CCC(n2c(=O)[nH]c3cccnc32)CC1",
    "pIC50": 4.89
  },
  {
    "GIVEN SMILES": "O=C1COc2ccccc2N1CCCN1CCC(n2c(=O)[nH]c3ccc(F)cc32)CC1",
    "pIC50": 5.36
  }
]

Need pIC50, item `O=C(Cc1ccccc1)NC1CCN(CCCN2C(=O)COc3ccccc32)CC1`
4.70

Try `O=C1COc2ccccc2N1CCCN1CCC(n2c(=O)[nH]c3cnccc32)CC1` next.
4.34

# iterate: `O=C1COc2ccccc2N1CCCN1CCC(n2c(=O)[nH]c3cc(F)ccc32)CC1`
5.72

Now this one: `O=C1COc2ccccc2N1CCCN1CCC(n2c(=O)[nH]c3c(F)cccc32)CC1`
5.47

---

target: Muscarinic acetylcholine receptor M1 (Homo sapiens, UniProt P11229, Y381A); assay: Agonist activity at human muscarinic M1 receptor Y381A mutant expressed in BHK-21 cells assessed as calcium mobilization for 6 mins by Calcium4-based staining
RECORDED ENDPOINT: EC50 (nM)
Write down the numeric answer in nM and omit the unit.

If you can, please state the reported EC50 value of `O=C1CCc2ccccc2N1CCCN1CCC(n2c(=O)[nH]c3ccccc32)CC1` .
6.3

---

Target: Muscarinic acetylcholine receptor M1 (Homo sapiens, UniProt P11229)
Sequence (P11229 whole entry): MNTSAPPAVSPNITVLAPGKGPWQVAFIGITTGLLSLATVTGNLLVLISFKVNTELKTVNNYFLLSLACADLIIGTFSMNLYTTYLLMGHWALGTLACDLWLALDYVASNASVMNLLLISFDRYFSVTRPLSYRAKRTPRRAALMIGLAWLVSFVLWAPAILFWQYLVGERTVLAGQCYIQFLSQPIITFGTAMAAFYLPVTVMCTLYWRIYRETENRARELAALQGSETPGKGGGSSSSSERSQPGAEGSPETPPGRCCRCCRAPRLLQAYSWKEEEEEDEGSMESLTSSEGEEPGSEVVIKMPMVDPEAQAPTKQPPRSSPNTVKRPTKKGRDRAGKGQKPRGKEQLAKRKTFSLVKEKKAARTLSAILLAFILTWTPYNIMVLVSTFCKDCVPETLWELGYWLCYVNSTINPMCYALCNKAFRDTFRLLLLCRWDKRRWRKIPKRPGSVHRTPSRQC
Assay: Agonist activity at human M1 receptor expressed in CHO-K1 cells assessed as calcium mobilization for 6 mins by Calcium4-based staining
Entries annotated with measured pEC50
# pEC50 is unitless: minus log10 of the molar concentration; print number only

Please state recorded pEC50 (tested on Muscarinic acetylcholine receptor M1 (Homo sapiens, UniProt P11229)) of `O=C1CCc2ccccc2N1CCCN1CCC(n2c(=O)[nH]c3ccccc32)CC1`
6.96

Also `O=C1CCc2ccccc2N1CCCN1CCC(c2ccc3[nH]ccc3c2)CC1` , if possible.
6.80

Another molecule to look at: `O=C1CCc2c(F)cccc2N1CCCN1CCC(n2c(=O)[nH]c3ccccc32)CC1`
7.17

Next molecule up: `O=C1CCc2cccnc2N1CCCN1CCC(n2c(=O)[nH]c3ccccc32)CC1`
7.70

// same read-out, input: O=c1[nH]c2ccccc2n1C1CCN(CCOc2ccccc2)CC1 [OXIPEROMIDE]
6.40

---

test: Plasma clearance in […] Sprague-Dawley rat; format: ADME, organism-based
RECORDED ENDPOINT: CL/F (mL/min/kg)
A number alone suffices; assume mL/min/kg.

Reported CL/F for `O=C1CCc2ccccc2N1CCCN1CCC(n2c(=O)[nH]c3ccccc32)CC1` : what is it?
50

---

Catalogue of pEC50 readings, one per entry.
target: UniProt P11229; assay: Agonist activity at human M1 receptor expressed in CHO-K1 cells assessed as calcium mobilization for 6 mins by Calcium4-based staining
Value format note: pEC50 is -log10 of concentration (mol/L); just state the number.

Some entries whose results are on file:
[
  {
    "GIVEN SMILES": "O=C1CCc2cccc(F)c2N1CCCN1CCC(n2c(=O)[nH]c3ccccc32)CC1",
    "pEC50": 6.52
  },
  {
    "GIVEN SMILES": "O=C1COc2ccccc2N1CCCN1CCC(n2c(=O)[nH]c3ccncc32)CC1",
    "pEC50": 5.92
  }
]

Field: next compound
Bench note: what pEC50 did `O=C1CCc2ncccc2N1CCCN1CCC(n2c(=O)[nH]c3ccccc32)CC1` show?
7.92

---

Biological target: Muscarinic acetylcholine receptor M1 (Homo sapiens) (UniProt P11229)
Sequence (whole entry): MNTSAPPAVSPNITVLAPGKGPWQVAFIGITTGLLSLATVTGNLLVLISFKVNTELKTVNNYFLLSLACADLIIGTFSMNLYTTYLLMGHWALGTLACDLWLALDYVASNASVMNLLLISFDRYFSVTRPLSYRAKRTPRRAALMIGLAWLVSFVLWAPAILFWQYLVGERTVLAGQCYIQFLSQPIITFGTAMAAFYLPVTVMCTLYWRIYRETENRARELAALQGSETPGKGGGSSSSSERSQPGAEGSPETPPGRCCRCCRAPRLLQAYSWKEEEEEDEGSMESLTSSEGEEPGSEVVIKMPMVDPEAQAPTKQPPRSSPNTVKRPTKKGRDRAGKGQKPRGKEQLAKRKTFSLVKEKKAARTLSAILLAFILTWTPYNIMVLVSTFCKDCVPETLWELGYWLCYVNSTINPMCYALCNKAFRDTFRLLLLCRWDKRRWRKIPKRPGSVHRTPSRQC
Test: Agonist activity at human M1 receptor expressed in CHO-K1 cells assessed as calcium mobilization at 10 uM for 6 mins by Calcium4-based staining
Assay type: functional, cell-based
RECORDED ENDPOINT: Emax (%)
Give just the numeric value; % need not be written.

# count of solved cases: 5
[
  {
    "GIVEN SMILES": "O=C1COc2ccccc2N1CCCN1CCC(n2c(=O)[nH]c3ncccc32)CC1",
    "ASSAYED TARGET": "Muscarinic acetylcholine receptor M1 (Homo sapiens) (UniProt P11229)",
    "RECORDED ENDPOINT": "Emax",
    "REPORTED VALUE": 8
  },
  {
    "GIVEN SMILES": "O=C1CCc2ccc(F)cc2N1CCCN1CCC(n2c(=O)[nH]c3ccccc32)CC1",
    "ASSAYED TARGET": "Muscarinic acetylcholine receptor M1 (Homo sapiens) (UniProt P11229)",
    "RECORDED ENDPOINT": "Emax",
    "REPORTED VALUE": 23
  },
  {
    "GIVEN SMILES": "O=C1CCc2cc(F)ccc2N1CCCN1CCC(n2c(=O)[nH]c3ccccc32)CC1",
    "ASSAYED TARGET": "Muscarinic acetylcholine receptor M1 (Homo sapiens) (UniProt P11229)",
    "RECORDED ENDPOINT": "Emax",
    "REPORTED VALUE": 24
  },
  {
    "GIVEN SMILES": "O=C1COc2ccccc2N1CCCN1CCC(n2c(=O)[nH]c3cccc(F)c32)CC1",
    "ASSAYED TARGET": "Muscarinic acetylcholine receptor M1 (Homo sapiens) (UniProt P11229)",
    "RECORDED ENDPOINT": "Emax",
    "REPORTED VALUE": 22
  },
  {
    "GIVEN SMILES": "O=C1CCc2ccccc2N1OCCN1CCC(n2c(=O)[nH]c3ccccc32)CC1",
    "ASSAYED TARGET": "Muscarinic acetylcholine receptor M1 (Homo sapiens) (UniProt P11229)",
    "RECORDED ENDPOINT": "Emax",
    "REPORTED VALUE": 31
  }
]

Form field: Emax recorded for `O=C1COc2ccccc2N1CCCN1CCC(n2c(=O)[nH]c3cnccc32)CC1` with Muscarinic acetylcholine receptor M1 (Homo sapiens) (UniProt P11229) (enter value)
4

// query: `O=C1CCc2ccncc2N1CCCN1CCC(n2c(=O)[nH]c3ccccc32)CC1`
7

Same for `O=C1CCc2cnccc2N1CCCN1CCC(n2c(=O)[nH]c3ccccc32)CC1`
0
